For each of the compounds below, state its RP-LC retention time.
- assayExplanation: gradient 5% acetonitrile 3 min, to 50% in 2 min, to 85% in 15 min, held 3 min, 100 µL/min
- studyConditions: column: Zorbax Extend-C18 2.1 x 50 mm; eluents: water / acetonitrile, 0.1% formic acid
The answer is to be given in s; state only the numeric part.

Recorded result, COc1ccc(-c2noc(C3CC(=O)N(c4cc(C)ccc4C)C3)n2)cc1 (stereo not given) , RP-LC retention time: 988

Value of RP-LC retention time reported for the compound Cc1cc(C)n2nc(SCC(=O)NCCc3ccc(Cl)cc3)nc2n1 is 719

Per the records, this compound ( CCCS(=O)(=O)N1CCCc2cc(NC(=O)Nc3cccc(OC)c3OC)ccc21 ) has RP-LC retention time equal to 908

Note to self: RP-LC retention time recorded for O=C(NCCN1CCCCCC1)C(=O)Nc1ccc2nc3n(c(=O)c2c1)CCCCC3 was 596

The compound listed as Cn1nnnc1C1CCCN(C(=O)Nc2ccc3c(c2)OCCO3)C1 (stereo not given) has a reported RP-LC retention time of 661

Consider Cc1cccc(C)c1Nc1c(-c2ccccc2)nc2ncccn12 . Its measured RP-LC retention time is 786

Lab note: Cc1cccc(NC(=O)C2CCCN(c3nc4ccccc4nc3C(F)(F)F)C2)c1C (stereo not given) gave RP-LC retention time of 830

Lab note: COc1cccc(CNC(=O)c2c(C)sc3ccn(Cc4ccc(F)cc4)c(=O)c23)c1 gave RP-LC retention time of 980

What the record says about O=C(N[C@H]1CN2CCC1CC2)c1ccc(Cl)cc1 : RP-LC retention time is 630

Data point: O=C(C1CCN(S(=O)(=O)c2ccc(-c3noc(CCC4CCCC4)n3)cc2)CC1)N1CCCC1 ; RP-LC retention time = 1190

Consider Oc1ccc2ccc3[nH]cnc3c2c1 . Its measured RP-LC retention time is 625

// C=C1C(=O)OC2CC(C)C3(O)CCC(=O)C3(C)CC12 (stereo not given) : RP-LC retention time value = 775

Reported RP-LC retention time for CCc1nc(-c2csc(S(=O)(=O)N3CCCC(C(=O)Nc4cc(C)on4)C3)c2)no1 (stereo not given) was 896

Memo: COc1ccc(Cc2nc(-c3cccc(-c4ccnn4C)c3)no2)cc1OC , reported RP-LC retention time: 904

Memo: COc1ccc(CCNC(=O)Nc2nnc(SC)s2)cc1 , reported RP-LC retention time: 718

Please fill in: RP-LC retention time reported for CC(C)C(=O)Nc1ccc(-n2cnc(C(=O)NC3CCCCCC3)c2)nc1 = 806

The reported RP-LC retention time of the compound COCCCNC(=O)c1c(OCC(C)C)cc(=O)n2c1CCCCC2 was 638

Query CCn1ccc2c(cc(C(=O)Nc3ccc(C)c(Cl)c3)n2C)c1=O yields RP-LC retention time of 907

Field RP-LC retention time (entry Cc1cc(NC(=O)c2cc(C)n3nccc3n2)ccc1F ) reads 942

The reported value for CCS(=O)(=O)N1C[C@@H](COc2cccnc2)[C@H](c2ccccn2)C1 in terms of RP-LC retention time is 561

In plain terms, CC(C)OC(=O)COc1cc(O)c2c(=O)cc(-c3ccccc3)oc2c1 has a documented RP-LC retention time of 1170

Documented RP-LC retention time of COc1ccc(OC)c(CNC(=O)C2CCN(c3ccc4nncn4n3)CC2)c1 : 680

For reference, reported RP-LC retention time for COc1ccc2c(c1)C1(CCN(S(=O)(=O)c3ccc(F)c(F)c3)C1)C(=O)N2 (stereo not given) stands at 837

The compound listed as O=C(NCc1ccc(F)cc1F)C1CCCN(c2ccc(-c3ccccc3)nn2)C1 (stereo not given) has a reported RP-LC retention time of 722

Looking up O=C(NCc1cccs1)c1nc2ccccn2c1-c1ccccc1 , I found its RP-LC retention time recorded as 853
